System: LU-135
Experiment: cells
Type: functional, cell-based, Homo sapiens
Details: lu-135
Description: SANGER: Inhibition of human LU-135 cell growth in a cell viability assay.
assay.endpoint: IC50 (µM)
Report the figure in µM without appending any unit label.

What value of measured IC50 is listed for CISPLATIN ?
33.8

====

System: OE33;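 further: growth inhibition of human OE33 cells, measured by a cell viability assay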
Assay: cells
Assay type: functional, cell-based, Homo sapiens
Details: Homo sapiens, OE33
Description: SANGER: Inhibition of human OE33 cell growth in a cell viability assay.
Let's look at some molecules and their measured IC50.
# value in nM; strip the unit string

Suppose we examine the molecule COc1cccc2c1C(=O)c1c(O)c3c(c(O)c1C2=O)C[C@@](O)(C(=O)CO)C[C@@H]3O[C@H]1C[C@H](N)[C@H](O)[C@H](C)O1 ; what IC50 value has been reported?
426

Check Cc1cc([N+](=O)[O-])ccc1NS(=O)(=O)c1cc(Cl)ccc1Cl too.
9490

And the next one, CC(C)c1ccccc1Cc1cc(C(=O)Nc2ccc(S(=O)(=O)c3ccccc3C(C)(C)C)cc2)c(O)c(O)c1O ?
695

Cited source for all entries: ChEMBL document CHEMBL1201861
